B1: SPDEF (parent)
chain: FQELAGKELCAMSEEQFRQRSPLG

Variants of: B1
test_protocol: protein stability index of a GFP-peptide fusion (GPS, HEK-293T) (PSI 1-6); higher = more stable;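 also: lentivirally expressed fusions sorted by FACS into six bins by GFP to DsRed ratio, PSI derived from sequencing read proportions per bin multiplied by bin number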
condition: c terminus: a fixed tail appended
assay_readout: protein stability index
Respond with the number and no other words.

E15P
2.41

Query block: Quick one: protein stability index for F1D ?
Result block: 4.94

Query block: Given Q2C , state its recorded protein stability index.
Result block: 2.36

Query block: Could you share which protein stability index value was measured for L23N ?
Result block: 3.46

Query block: Give its protein stability index value. Item: S21M
Result block: 2.74

Query block: # protein stability index lookup, item C10F
Result block: 2

Query block: Dear colleague, I am looking for the recorded protein stability index of the following variant: A11C
Result block: 1.83

Query block: Field request: protein stability index | item: P22V
Result block: 2.87

Query block: Returns the measured protein stability index for the input variant. Input: Q16S
Result block: 2.56

Query block: // query protein stability index value for entry K7P
Result block: 3.35

Query block: Need protein stability index, item Q2A
Result block: 2.07

Query block: Please look up its protein stability index: E14A
Result block: 2.28

Query block: Which value of protein stability index has been reported for M12W in the records?
Result block: 1.79

Query block: Field request: protein stability index | item: K7F
Result block: 2.18

Query block: What value of protein stability index has been reported for the following variant? L23S
Result block: 3.16
